Please provide measured % inhibition of HepG2 viability for the entries that follow.
# Tested on: HepG2-A16-CD81;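 also: HepG2-A16-CD81 hepatoma cells plated as in the liver-stage assay but without sporozoites, with DMSO wells as negative and 25 µM puromycin as positive control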
# assay remarks: % inhibition of HepG2 viability (CellTiter-Glo); higher = more toxic
# settings: 5 µM
Answers are plain numbers, in %.

Previously resolved entries follow.
molecule: C[C@H]1[C@@H](c2cccc(C(F)(F)F)c2)OC(=O)N1C(=O)NCc1cncc2ccccc12
% inhibition of HepG2 viability / %: 12.1
--
molecule: O=C(Nc1ccc(N2CCN(C(=O)c3ccccc3)CC2)cc1)c1ccc2c(c1)OCO2
% inhibition of HepG2 viability / %: 38.8

// each molecule listed below needs its % inhibition of HepG2 viability
1. CC(C)/N=c1\cc2n(-c3ccc(Cl)cc3)c3ccccc3nc-2cc1Nc1ccc(Cl)cc1
2. C[C@H](Cn1cnc2c(N)ncnc21)OCP(=O)(O)O
3. Cc1c(OCC(F)(F)F)ccnc1CS(=O)c1nc2ccccc2[nH]1 (centres undefined)
4. NCC(=O)Nc1ccc(-n2nc(C(F)(F)F)cc2-c2ccc3c(ccc4ccccc43)c2)cc1
5. NC(=O)c1cnc2ccc(S(=O)(=O)c3ccccc3)cc2c1Nc1ccc(O)cc1

Output line:
18.3
-1.34
1.82
9.92
6.05

// each molecule listed below needs its % inhibition of HepG2 viability
1. CCCCOC(=O)Nc1cc2nc(C3CCCCC3)[nH]c2cc1N(CC)CC
2. O=C1c2cccc3cccc(c23)C(=O)N1CC1CO1 (centres undefined)

Output line:
1. 3.15
2. -6.3
